Assay: self-splicing fitness, log relative to wild type (ln ratio); higher = more splicing; Tetrahymena group I intron in knt gene, E. coli kanamycin selection, DiMSum; sequences stand for … in CUCUCU…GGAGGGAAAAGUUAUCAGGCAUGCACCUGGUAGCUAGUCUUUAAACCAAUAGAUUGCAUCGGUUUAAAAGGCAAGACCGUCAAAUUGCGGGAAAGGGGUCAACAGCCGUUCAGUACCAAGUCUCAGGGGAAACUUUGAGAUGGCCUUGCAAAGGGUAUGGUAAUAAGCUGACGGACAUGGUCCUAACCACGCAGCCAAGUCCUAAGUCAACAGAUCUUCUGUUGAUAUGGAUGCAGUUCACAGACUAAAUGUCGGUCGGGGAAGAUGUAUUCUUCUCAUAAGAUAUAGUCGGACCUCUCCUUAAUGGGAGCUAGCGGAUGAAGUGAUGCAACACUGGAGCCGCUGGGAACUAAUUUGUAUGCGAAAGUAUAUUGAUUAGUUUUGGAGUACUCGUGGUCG;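 note: selection with 25 µg/mL kanamycin versus none on LB agar overnight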
Settings: 30 °C
Measured self-splicing fitness (ln), listed per entry.
parameter.measured: self-splicing fitness (ln)

> print(dat)
         sequence.entry  observed.result
1  GUUCAGCAAUAUUACGCUCC           -0.282
2  GCACAGCAAUAUUACGUGGU            -3.37
3  UAUAAGCAAUAUUACGCAUC            -3.74
4  CUAAAGCAAUAUUACGACUU            -3.45
5  AAGUAGCAAUAUUACGACGG            -1.74
6  GAAAAGCAAUAUUACGAAGG            -3.27
7  AUCAAGCAAUAUUACGAUGA           -0.483

---

Measured self-splicing fitness (ln), listed per entry.
Assay: self-splicing fitness, log relative to wild type (ln ratio); higher = more splicing; Tetrahymena group I intron in knt gene, E. coli kanamycin selection, DiMSum; sequences stand for … in CUCUCU…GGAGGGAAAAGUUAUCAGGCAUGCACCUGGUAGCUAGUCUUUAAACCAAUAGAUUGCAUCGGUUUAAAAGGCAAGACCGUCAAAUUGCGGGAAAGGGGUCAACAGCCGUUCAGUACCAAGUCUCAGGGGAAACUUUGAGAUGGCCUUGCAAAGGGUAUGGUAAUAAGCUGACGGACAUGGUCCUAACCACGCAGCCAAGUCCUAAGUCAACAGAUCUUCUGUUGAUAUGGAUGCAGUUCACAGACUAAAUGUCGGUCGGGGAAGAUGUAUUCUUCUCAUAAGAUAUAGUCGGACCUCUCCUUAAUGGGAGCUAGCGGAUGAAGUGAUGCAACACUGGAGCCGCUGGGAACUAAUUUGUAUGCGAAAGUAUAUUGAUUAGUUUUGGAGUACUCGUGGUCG
Settings: 30 °C
parameter.measured: self-splicing fitness (ln)

> print(dat)
          sequence.entry  observed.result
 1  AACGAGCAAUAUUACGUCAG            -3.08
 2  CAACAGCAAUAUUACGUGGA            -3.08
 3  UGCCAGCAAUAUUACGAGAC            -3.05
 4  CGUAAGCAAUAUUACGCCAU            -3.78
 5  AGAGAGCAAUAUUACGUUGU            -3.79
 6  CCCAAGCAAUAUUACGUAGU            -3.65
 7  AGUUAGCAAUAUUACGUUAC            -3.26
 8  CUGAAGCAAUAUUACGAAAA            -4.17
 9  GAAUAGCAAUAUUACGCGUG            -1.01
10  UCGAAGCAAUAUUACGUUUG            -2.67
11  CUGGAGCAAUAUUACGAUGA            -3.18
12  GGACAGCAAUAUUACGGAAU            -1.19
13  AGAGAGCAAUAUUACGUACC            -1.69
14  UACCAGCAAUAUUACGUUGU            -3.56
15  UACCAGCAAUAUUACGGGGC            -4.11
16  GAAUAGCAAUAUUACGCCUA           -0.724
17  AUAUAGCAAUAUUACGCGUC             -3.3
18  GAAGAGCAAUAUUACGAGUA            -3.78
19  AUACAGCAAUAUUACGUUAA            -3.26
20  UCAUAGCAAUAUUACGACCU            -2.73
21  GAUAAGCAAUAUUACGGUAG            -3.17
22  GAAUAGCAAUAUUACGUAGA            -3.35
23  GGGCAGCAAUAUUACGUCGG            -0.72
24  GGAUAGCAAUAUUACGGAUG            -3.16
25  CAUUAGCAAUAUUACGUUGG            -2.05
26  GUCCAGCAAUAUUACGGGGA            -2.41
27  CCUGAGCAAUAUUACGUUAC            -3.52
28  UCUCAGCAAUAUUACGUCUG            -4.98
29  UCAUAGCAAUAUUACGUAUC            -4.44
30  GCCGAGCAAUAUUACGGACA           -0.642
31  UAAUAGCAAUAUUACGCACG             -1.1
32  AAGGAGCAAUAUUACGCGGU            -3.56
33  AAUUAGCAAUAUUACGACUC           -0.246
34  GUGAAGCAAUAUUACGUUAA            -2.09
35  AGGCAGCAAUAUUACGGCAA           -0.539
36  GGUCAGCAAUAUUACGAGAU            -2.39
37  UUACAGCAAUAUUACGGUUC            -1.97
38  AGAAAGCAAUAUUACGCGCA           -0.218
39  UUUUAGCAAUAUUACGGAGA            -1.93
40  GUGGAGCAAUAUUACGUCUA            -3.74
41  CCUAAGCAAUAUUACGGGGU            -3.28
42  UUAAAGCAAUAUUACGGACC            -2.27
43  UAAAAGCAAUAUUACGCGAC            -3.73
44  GUGGAGCAAUAUUACGCUUA            -1.86
45  UAGCAGCAAUAUUACGUGCC            -1.84
46  AUCUAGCAAUAUUACGCGGU            -2.85
47  GGUCAGCAAUAUUACGUCUG           -0.665
48  GUAUAGCAAUAUUACGAGAG            -1.56

---

Assay: self-splicing fitness, log relative to wild type (ln ratio); higher = more splicing; Tetrahymena group I intron in knt gene, E. coli kanamycin selection, DiMSum; sequences stand for … in CUCUCU…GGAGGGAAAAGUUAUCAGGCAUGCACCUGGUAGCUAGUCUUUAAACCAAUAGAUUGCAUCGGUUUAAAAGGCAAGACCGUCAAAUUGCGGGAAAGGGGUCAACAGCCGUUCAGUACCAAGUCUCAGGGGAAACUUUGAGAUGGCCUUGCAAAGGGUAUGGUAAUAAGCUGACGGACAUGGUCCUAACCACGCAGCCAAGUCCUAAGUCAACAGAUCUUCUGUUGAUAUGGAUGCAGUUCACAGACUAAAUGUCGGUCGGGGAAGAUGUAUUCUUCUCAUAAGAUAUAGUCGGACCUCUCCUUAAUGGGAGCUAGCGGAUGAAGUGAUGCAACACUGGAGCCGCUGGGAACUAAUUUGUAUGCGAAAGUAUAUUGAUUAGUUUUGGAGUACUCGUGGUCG
Settings: 37 °C
# self-splicing fitness (ln) binned as LOW = under -1, MEDIUM = from -1 up to -0.4, HIGH = -0.4 and over

> print(dat)
          sequence.entry  class.label
 1  CUUUAGCAAUAUUACGCGUG          LOW
 2  GGGAAGCAAUAUUACGAUUU         HIGH
 3  UCAGAGCAAUAUUACGCGGC          LOW
 4  GGAGAGCAAUAUUACGCUCA       MEDIUM
 5  GUGCAGCAAUAUUACGCACA          LOW
 6  GUCUAGCAAUAUUACGCCUC         HIGH
 7  UUACAGCAAUAUUACGGCAU       MEDIUM
 8  UACGAGCAAUAUUACGGUUA         HIGH
 9  GCUUAGCAAUAUUACGCGCG         HIGH
10  GGCAAGCAAUAUUACGAAAU       MEDIUM
11  ACUAAGCAAUAUUACGCUUC       MEDIUM
12  AUAGAGCAAUAUUACGUUUC          LOW
13  ACAAAGCAAUAUUACGCCCC         HIGH
14  GACCAGCAAUAUUACGCAUC       MEDIUM
15  CACCAGCAAUAUUACGCUCC          LOW
16  UUGCAGCAAUAUUACGUCUA         HIGH
17  GCAGAGCAAUAUUACGUCUG          LOW
18  AUAAAGCAAUAUUACGUGAC          LOW
19  UUUCAGCAAUAUUACGUGGG          LOW
20  AUCUAGCAAUAUUACGACGC         HIGH
21  AUCGAGCAAUAUUACGGCCU          LOW
22  AGGGAGCAAUAUUACGGUCA          LOW
23  UUCAAGCAAUAUUACGUCGG       MEDIUM
24  AACAAGCAAUAUUACGAACG       MEDIUM
25  CAUAAGCAAUAUUACGCAUU          LOW
26  AGUGAGCAAUAUUACGACAG          LOW
27  AACAAGCAAUAUUACGUGUG       MEDIUM
28  AUGUAGCAAUAUUACGCUAA       MEDIUM
29  GCAGAGCAAUAUUACGUGGA          LOW
30  UUCAAGCAAUAUUACGCCCU         HIGH
31  GCAGAGCAAUAUUACGGGUU          LOW
32  CGCUAGCAAUAUUACGUUCC          LOW
33  CUCCAGCAAUAUUACGGAAU          LOW
34  UAGUAGCAAUAUUACGCGCG         HIGH
35  UAAAAGCAAUAUUACGGCUG         HIGH
36  AGUUAGCAAUAUUACGACUG         HIGH
37  ACGGAGCAAUAUUACGCAGA          LOW
38  AGCAAGCAAUAUUACGUCUU         HIGH
39  ACAAAGCAAUAUUACGUGCA         HIGH
